- protocol_summary: yeast display, Sf9 membrane polyspecificity reagent, FACS + sequencing; frameworks hold sequencing errors
measure_name: polyreactivity (PSR sort gate)

[[record]]
chain_sequence = "QVQLVESGGGLVQAGGSLRLSCAASGSTFSFNDRGWYRQAPGKERELVADISCSGDTTYADSVKGRFTISRDNAKNTVYLQMKSLKPEATAVYYCAARQYFRNYVYWGQGTQVTVSS"
measure_name = "polyreactivity (PSR sort gate)"
reported = "high polyreactivity"

[[record]]
chain_sequence = "QVQLVESGGGLVQAGVSLRLSCAASGITFNHYTMGWYRQAPGKERELVAAISSRGSTTYYADSVKGRFTISRDNAKNTVYLQMNSLKPEDTAVYYCAAVYYLYSAWRYDYWGQGTQVTVSS"
measure_name = "polyreactivity (PSR sort gate)"
reported = "high polyreactivity"

[[record]]
chain_sequence = "QVQLVESGGGLVQAGGSLRLSCAASGSIFVGNAMGGYRQAPGKERELVAAITSSGGRTYYADSVKGRFTISRDNAKNTVYLQMNSLKPEDTAVYYCNTSRTRRFSLWAYDYWGQGTQVTVSS"
measure_name = "polyreactivity (PSR sort gate)"
reported = "high polyreactivity"

[[record]]
chain_sequence = "QVQLVESGGGLVQAGGSLRLSCAASGRISPNNVMGWYRQAPGKERELVAVISRSGDRTNYADSVKGRFTISRDNAKNTVYLQMNSLKPEDTAVYYCAARVVADKYRYDYWGQGTQVTVSS"
measure_name = "polyreactivity (PSR sort gate)"
reported = "high polyreactivity"


For reference, reported polyreactivity (PSR sort gate) for QVQLVESGGGLVQAGGSLSLSWAASGSTFETNAMGWYRQAPGKERELVAVITRGGSTYSADSVKGRFTISRDNAKNTVFLQMNRLKPEDTAVYYCNTVKYVPINYIYAMDYWGQGTQVTVSS stands at low polyreactivity

For reference, reported polyreactivity (PSR sort gate) for QVQLVESGGGLVQAGGSLRLSCAASGLTFSRYAMGWYRQAPGKERELVAAIKGRGGSTYYADSVKGRFTISRDNAKNTVYLQMNSLKPEDTAVYYCAATTRGSYSGNRPAYYWGQCTQVTVSS stands at high polyreactivity

For reference, reported polyreactivity (PSR sort gate) for QVQLVESGGGLVQAGGSLRLSCAASGSTFVWNAMGWYRQAPGQERELVAAITWSGGSTYYADSVKGRFTISRDNAKNTVYLQMNSLIPEDTAVYYGNAGPVVRRWDAVGYDYWGQGTQVTVSS stands at low polyreactivity

For reference, reported polyreactivity (PSR sort gate) for QVQLVESGGGLVQAGGSLRLSCAASGSIFPGYAMGWYRQAPGKERELVAGITWSDARTYYADSVKGRFTISRDNAKNTVYLQMNCLKPEDTAVYYCAADYYYYELDYWGKGTQVTVSS stands at low polyreactivity

For reference, reported polyreactivity (PSR sort gate) for QVQLVESGGGLVQAGGSLRLSCAASGRIFSYNAMGWYRQAPGKERELVAAISYRGGSTYYADSVKGRFTISRDNAKNTVYLQMNSLKPEDTAVYYCNAEAYYPYGYDYWGQGTQVSVSS stands at low polyreactivity

For reference, reported polyreactivity (PSR sort gate) for QVQLVESGGGLVQAGGSLRLSCAASGSIFRVNAMGWYRQAPGKERELVAAITSGGTTTYYADSVKGRFTISLDNAKNTVYLQMNSLKPEDTAVYYCSKYPYPIYHTDGDDWGQGTQVTVSS stands at low polyreactivity

For reference, reported polyreactivity (PSR sort gate) for QVQLVESGGGLVQAGGSLRLSCAASGLTFNAYPMGCYRQAPGKEWELVAAITSRGSSTYYADSVKGRFTISRDNAKNTVYLQMNSLKPEDTAVYYCAARQRGYYYSRRYDYWGQGTQVTVSS stands at high polyreactivity
